Tested on: Saccharomyces cerevisiae
METHOD_SUMMARY: protein stability index of tFT-peptide fusion (C-terminal peptide) (PSI (0-1 scale)); higher = more stable (slower turnover)
EXPERIMENTAL_PARAMETERS: genetic background: das1 deletion; temperature: 30 C
Here the recorded protein stability index is given for each entry.
Answer field: number only, no words.

Record excerpt, results attached:
[[record]]
input_sequence = "SRVGAGVVRGVG"
observed_value = 0.498

[[record]]
input_sequence = "GGVCVRMECWMG"
observed_value = 0.486

[[record]]
input_sequence = "TFVGWIVWLCGS"
observed_value = 0.487


// next entry
What value of protein stability index has been recorded for this entry: GINYSNKKILVN 0.493

---

Test system: Saccharomyces cerevisiae
METHOD_SUMMARY: protein stability index of tFT-peptide fusion (C-terminal peptide) (PSI (0-1 scale)); higher = more stable (slower turnover)
EXPERIMENTAL_PARAMETERS: genetic background: das1 deletion; temperature: 37 C
Please mark true (1) if the recorded protein stability index is equal to or greater than 0.6, and false (0) if it falls below.

Below, 3 sequences whose answers are already recorded.
[[record]]
input_sequence = "WPRSFSIILLSR"
assay_system = "Saccharomyces cerevisiae"
class_assignment = "false (0)"

[[record]]
input_sequence = "TRKKENERRKNG"
assay_system = "Saccharomyces cerevisiae"
class_assignment = "true (1)"

[[record]]
input_sequence = "STVGAWGRVGEG"
assay_system = "Saccharomyces cerevisiae"
class_assignment = "false (0)"


Hi team, for LISGVCLRVKVG , is the recorded protein stability index at or above 0.6? true (1)

Hi team, for GIFYVRTIWSCG , is the recorded protein stability index at or above 0.6? false (0)

Hi team, for FRILVGCRVVLM , is the recorded protein stability index at or above 0.6? false (0)

---

Test system: Saccharomyces cerevisiae;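 also: PSI is a weighted mean of sequencing reads over stability bins, variants kept only with over 10 reads, mCherry proximal and sfGFP distal, peptide attached via GGGS linker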
METHOD_SUMMARY: protein stability index of tFT-peptide fusion (C-terminal peptide) (PSI (0-1 scale)); higher = more stable (slower turnover)
EXPERIMENTAL_PARAMETERS: genetic background: cdc53-1; temperature: 37 C
EXPERIMENTAL_ENDPOINT: protein stability index

Record excerpt, results attached:
[[record]]
input_sequence = "PLFPLLGLLFFF"
assay_system = "Saccharomyces cerevisiae"
observed_value = 0.615

[[record]]
input_sequence = "APASFRVLISAF"
assay_system = "Saccharomyces cerevisiae"
observed_value = 0.0368

[[record]]
input_sequence = "LCAFLKLFILII"
assay_system = "Saccharomyces cerevisiae"
observed_value = 0.141

[[record]]
input_sequence = "LPTLDCPLHRLF"
assay_system = "Saccharomyces cerevisiae"
observed_value = 0.8

[[record]]
input_sequence = "WVFMVILLVFLV"
assay_system = "Saccharomyces cerevisiae"
observed_value = 0.268


What value of protein stability index has been recorded for this entry: YHFSLFFPLSLP 0.73

What value of protein stability index has been recorded for this entry: KNGNVEILIKCT 0.628

What value of protein stability index has been recorded for this entry: RSKWEKLDKIVS 0.777

What value of protein stability index has been recorded for this entry: CCLGVIASFIVW 0.435

What value of protein stability index has been recorded for this entry: GLWLCRGLVRAW 0.382

What value of protein stability index has been recorded for this entry: RFFFSSFPLLIS 0.263

What value of protein stability index has been recorded for this entry: PPRRCFPLLLFF 0.447

What value of protein stability index has been recorded for this entry: VRTFVFLVGYCE 0.62

What value of protein stability index has been recorded for this entry: SVSMYPKPHLIC 0.682
